Taken from patent US11478457B2.

# system tested: UDP-glucose dehydrogenase (Homo sapiens)
# Sequence (O60701 whole entry): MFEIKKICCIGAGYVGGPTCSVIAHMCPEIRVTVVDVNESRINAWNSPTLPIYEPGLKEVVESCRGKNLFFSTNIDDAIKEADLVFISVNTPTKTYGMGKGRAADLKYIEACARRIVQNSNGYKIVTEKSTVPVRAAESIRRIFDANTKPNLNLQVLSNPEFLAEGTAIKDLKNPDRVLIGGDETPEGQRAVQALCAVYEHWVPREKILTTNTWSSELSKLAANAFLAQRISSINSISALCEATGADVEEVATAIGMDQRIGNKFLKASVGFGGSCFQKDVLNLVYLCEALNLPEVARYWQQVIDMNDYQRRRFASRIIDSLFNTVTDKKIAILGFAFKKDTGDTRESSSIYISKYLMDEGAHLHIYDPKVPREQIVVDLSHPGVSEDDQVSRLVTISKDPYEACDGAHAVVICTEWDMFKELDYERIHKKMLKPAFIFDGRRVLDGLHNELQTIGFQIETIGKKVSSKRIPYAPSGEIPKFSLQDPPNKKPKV
# protocol text: High throughput screening for inhibitors of UDP-glucose dehydrogenase (NADH fluorescence)
# Format: biochemical
# condition context: compound plates 20 μL/well of 25 μg/mL compound in 2.5% DMSO; relative to DMSO negative and UDP-xylose positive controls; higher POC = more inhibitory; read-out: POC (Percent of Controls)

- compound: "Cc1ccc(S(=O)(=O)Nc2cccc3ccc(-n4nc(C)cc4C)nc23)cc1"
  inhibition at 25 µg/mL (stock) (%): 148
- compound: "CC(=O)NC(CC(=O)c1ccc(Cl)cc1Cl)C(Cl)(Cl)Cl (stereo not drawn)"
  inhibition at 25 µg/mL (stock) (%): 86
- compound: "CN1CCc2c(sc(N)c2C#N)C1"
  inhibition at 25 µg/mL (stock) (%): 55
- compound: "N#CSC(C#N)Cc1ccccc1 (stereo not drawn)"
  inhibition at 25 µg/mL (stock) (%): 59
- compound: "CCC(=O)Nc1ccc(C(=O)Nc2ccc(Cl)cc2C(=O)O)cc1"
  inhibition at 25 µg/mL (stock) (%): 50
- compound: "Cc1ccc(-c2csc(N)c2C(N)=O)cc1C"
  inhibition at 25 µg/mL (stock) (%): 47
- compound: "O=c1c(O)cccc2c([C@H]3Oc4cc(O)cc(O)c4C[C@H]3O)cc(O)c(O)c12"
  inhibition at 25 µg/mL (stock) (%): 53
- compound: "Cc1ccccc1-c1nnc(N)s1"
  inhibition at 25 µg/mL (stock) (%): 51
- compound: "Cc1[nH]nc(-c2ccc(O)c(O)c2O)c1Oc1ccccc1"
  inhibition at 25 µg/mL (stock) (%): 46
- compound: "Cc1nnc(SC2CC(=O)N(c3ccc(Oc4ccccc4)cc3)C2=O)s1 (stereo not drawn)"
  inhibition at 25 µg/mL (stock) (%): 58
- compound: "COc1cc(NC(=O)COc2ccc(C)cc2C)ccc1NC(=O)c1ccco1"
  inhibition at 25 µg/mL (stock) (%): 70
- compound: "CCN(CC)c1ccc(N)c(C)c1"
  inhibition at 25 µg/mL (stock) (%): 46
- compound: "O=c1oc2cc(Br)c(O)c(Br)c2s1"
  inhibition at 25 µg/mL (stock) (%): 51
- compound: "C[n+]1sc(Nc2ccccc2)nc1-c1ccccc1"
  inhibition at 25 µg/mL (stock) (%): 58
- compound: "CCc1ccc(NC(Nc2ccc(CC)cc2)=C(S(=O)(=O)CC)S(=O)(=O)CC)cc1"
  inhibition at 25 µg/mL (stock) (%): 47
- compound: "Cc1sc(NC(=O)Cc2ccc([N+](=O)[O-])cc2)c(C(N)=O)c1C"
  inhibition at 25 µg/mL (stock) (%): 75
- compound: "CC(C)c1cc2c(c(O)c1O)[C@@]1(C(=O)O)CCCC(C)(C)C1CC2 (stereo partly drawn)"
  inhibition at 25 µg/mL (stock) (%): 66
- compound: "O=C1CC(Sc2ccccn2)C(=O)N1c1cccc(Cl)c1Cl (stereo not drawn)"
  inhibition at 25 µg/mL (stock) (%): 49
- compound: "N#CSC(C#N)Cc1cccc([N+](=O)[O-])c1 (stereo not drawn)"
  inhibition at 25 µg/mL (stock) (%): 88
- compound: "CC(C)(C)C(=O)NCCNc1ccc([N+](=O)[O-])cc1"
  inhibition at 25 µg/mL (stock) (%): 47
- compound: "O=C(OC[C@H]1O[C@H](OC(=O)c2cc(O)c(O)c(OC(=O)c3cc(O)c(O)c(O)c3)c2)[C@H](OC(=O)c2cc(O)c(O)c(OC(=O)c3cc(O)c(O)c(O)c3)c2)[C@@H](OC(=O)c2cc(O)c(O)c(OC(=O)c3cc(O)c(O)c(O)c3)c2)[C@@H]1OC(=O)c1cc(O)c(O)c(OC(=O)c2cc(O)c(O)c(O)c2)c1)c1cc(O)c(O)c(OC(=O)c2cc(O)c(O)c(O)c2)c1"
  inhibition at 25 µg/mL (stock) (%): 69
